Origin of measurements: patent US20260373248A1

# Tested on: mRNA
# assayNotes: mRNA encapsulation (modified Quant-iT RiboGreen assay)
# Assay type: physicochemical
# conditionsUsed: mRNA; formulation recipe O5
# Protocol: The mRNA concentration and the percentage of encapsulated mRNA were determined using fluorescent-based Quant-iT RiboGreen RNA Reagent Kit (Life Technologies, Waltham, MA) as described previously. […] The fluorescence intensity of mRNA-RiboGreen reagent complex (excitation at 485 nm and emission at 530 nm) was detected using a microplate reader. The ratio of fluorescence without and with Triton X-100 were used to calculate the percentage of encapsulated mRNA. […]
Non-standard residues stand in square brackets, D forms with d. Residues, ends and D or L forms follow the SMILES beside them. *: point of attachment. Gly(N-(3-decanoyloxypropyl)) = CCCCCCCCCC(=O)OCCCNCC(=O)O; N(3-lauroyloxypropyl)Gly = CCCCCCCCCCCC(=O)OCCCNCC(=O)O; N(2-decanoyloxyethyl)Gly = CCCCCCCCCC(=O)OCCNCC(=O)O; Gly(N-3-morpholinopropyl) = O=C(O)CNCCCN1CCOCC1; N(2-ethylhexyl)Gly = CCCCC(CC)CNCC(=O)O; N(CH(CH2OH)2)Gly = O=C(O)CNC(CO)CO; N(octyl)Gly = CCCCCCCCNCC(=O)O; NDecylGly = CCCCCCCCCCNCC(=O)O; For = O=C*
Consider the following molecules; for each one, report its % Encapsulation.
Numeric only. Scale: %

Task: What value of % Encapsulation has been recorded for this entry: CCCCCCCCCCCC(=O)OCCCN(CC(=O)N(CC(N)=O)CC(CC)CCCC)C(=O)CN(CCCCCCCC)C(=O)CN(CC(CC)CCCC)C(=O)CN(CCCOC(=O)CCCCCCCCCCC)C(=O)CN(CCCCCCCC)C(=O)CN(C=O)CCCN1CCOCC1 (centres unmarked) [Compound 74] (For-[Gly(N-3-morpholinopropyl)][N(octyl)Gly][N(3-lauroyloxypropyl)Gly][N(2-ethylhexyl)Gly][N(octyl)Gly][N(3-lauroyloxypropyl)Gly][N(2-ethylhexyl)Gly]-NH2)
Result: 90.4

Task: What value of % Encapsulation has been recorded for this entry: CCCCCCCCCCCC(=O)OCCCN(CC(=O)N(CC(=O)N(CCCN1CCOCC1)CC(=O)N(CC(=O)N(CCCOC(=O)CCCCCCCCCCC)CC(=O)N(CC(N)=O)CC(CC)CCCC)CC(CC)CCCC)CC(CC)CCCC)C(=O)CN(C=O)CC(CC)CCCC (centres unmarked) [Compound 80] (For-[N(2-ethylhexyl)Gly][N(3-lauroyloxypropyl)Gly][N(2-ethylhexyl)Gly][Gly(N-3-morpholinopropyl)][N(2-ethylhexyl)Gly][N(3-lauroyloxypropyl)Gly][N(2-ethylhexyl)Gly]-NH2)
Result: 82.6

Task: What value of % Encapsulation has been recorded for this entry: CCCCCCCCCCN(CC(=O)N(CC(=O)N(CCCOC(=O)CCCCCCCCC)CC(N)=O)CC(CC)CCCC)C(=O)CN(CC(CC)CCCC)C(=O)CN(CCCOC(=O)CCCCCCCCC)C(=O)CN(CC(CC)CCCC)C(=O)CNC(CO)CO (centres unmarked) [Compound 58] (H-[N(CH(CH2OH)2)Gly][N(2-ethylhexyl)Gly][Gly(N-(3-decanoyloxypropyl))][N(2-ethylhexyl)Gly][NDecylGly][N(2-ethylhexyl)Gly][Gly(N-(3-decanoyloxypropyl))]-NH2)
Result: 92.8

Task: What value of % Encapsulation has been recorded for this entry: CCCCCCCCCC(=O)OCCN(CC(N)=O)C(=O)CN(CC(CC)CCCC)C(=O)CN(CCOC(=O)CCCCCCCCC)C(=O)CN(CCOC(=O)CCCCCCCCC)C(=O)CN(CC(CC)CCCC)C(=O)CN(CCOC(=O)CCCCCCCCC)C(=O)CNC(CO)CO (centres unmarked) [Compound 56] (H-[N(CH(CH2OH)2)Gly][N(2-decanoyloxyethyl)Gly][N(2-ethylhexyl)Gly][N(2-decanoyloxyethyl)Gly][N(2-decanoyloxyethyl)Gly][N(2-ethylhexyl)Gly][N(2-decanoyloxyethyl)Gly]-NH2)
Result: 89.6

Task: What value of % Encapsulation has been recorded for this entry: CCCCCCCCCCCC(=O)OCCCN(CC(=O)N(CC(=O)N(CC(=O)N(CCCOC(=O)CCCCCCCCCCC)CC(=O)N(CC(=O)N(CC(N)=O)CC(CC)CCCC)CC(CC)CCCC)CC(CC)CCCC)CC(CC)CCCC)C(=O)CNC(CO)CO (centres unmarked) [Compound 51] (H-[N(CH(CH2OH)2)Gly][N(3-lauroyloxypropyl)Gly][N(2-ethylhexyl)Gly][N(2-ethylhexyl)Gly][N(3-lauroyloxypropyl)Gly][N(2-ethylhexyl)Gly][N(2-ethylhexyl)Gly]-NH2)
Result: 91.9
